This section presents molecules with their documented GI50 values.
# Tested on: NCI-H522
# test_protocol: NCI tumour cell line growth inhibition, 48 h
Activity calls are given as the source filed them. No stated cut-off is given here; in the data, active = GI50 up to about 1.1 µM and inactive = higher.

Field: example entries. Status: answers known.
[
  {
    "molecule": "COc1cccc(/C=C/C(=O)N2CC(CCl)c3c2cc(N)c2ccccc32)c1 (stereo not drawn)",
    "GI50": "0.00045 µM (active)"
  },
  {
    "molecule": "Brc1ccc2c(c1)-c1nc3nc4c(cc3cc1CC2)CCc1ccc(Br)cc1-4",
    "GI50": "> 100 µM (inactive)"
  }
]

Prompt line: Specify reported GI50 for the molecule shown: `O=c1c2c(nc3n1CCC3)sc1c(O)c(Br)ccc12`
Response line: 16 µM (inactive)

Prompt line: Given the molecule `O=C(CSc1nccc(=O)[nH]1)c1ccccc1` , write its reported GI50.
Response line: > 100 µM (inactive)

Prompt line: Look up GI50 of `NC1=Nc2ccccc2Sc2nc3ccccc3n21` and report it.
Response line: 13.9 µM (inactive)

Prompt line: For the molecule NC1C2C(CC(=O)O)OCC=C3CN4CCC1(C(=O)C(=O)O)C4CC32 (stereo not drawn) , report GI50.
Response line: > 100 µM (inactive)

Prompt line: Consider the molecule COC1(C)CP(=O)(OC(C)C)CC(C)=C1Cl (stereo not drawn) . State its measured GI50.
Response line: 9.62 µM (inactive)

Prompt line: Write down GI50 measured for item `CCCCCCCCC(=O)NCCN(CCN)C(=O)CCCCCCCC`
Response line: 2.65 µM (inactive)

Origin of values: ChEMBL document CHEMBL1201862
